B1: ZNF263 (parent)
chain: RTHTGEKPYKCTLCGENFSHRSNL

- Variants of: B1
- TEST: protein stability index of a GFP-peptide fusion (GPS, HEK-293T) (PSI 1-6); higher = more stable;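 also: lentivirally expressed fusions sorted by FACS into six bins by GFP to DsRed ratio, PSI derived from sequencing read proportions per bin multiplied by bin number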
- TEST CONTEXT: c terminus: a fixed tail appended
Assign YES to entries whose protein stability index meets or exceeds 2; assign NO to the rest.

# CHANGES, GROUP
measured = [
    ("G5S", "NO"),
    ("P8D", "YES"),
    ("E16L", "NO"),
    ("C14D", "YES"),
    ("G15D", "YES"),
    ("C14Y", "YES"),
    ("G5F", "NO"),
    ("S19V", "YES"),
    ("S22W", "NO"),
    ("S22I", "NO"),
    ("H20K", "NO"),
    ("T4N", "YES"),
    ("R1F", "YES"),
    ("H3W", "NO"),
]

Hello, the source for this data is the supplement of paper PMC10567573, in case you need it.
